- target-of-assay: His-tagged LptB2FG (ablLptB2FG) (Acinetobacter baylyi, UniProt Q6FFD6+Q6FFD7)
- Sequence (Q6FFD7 1-366): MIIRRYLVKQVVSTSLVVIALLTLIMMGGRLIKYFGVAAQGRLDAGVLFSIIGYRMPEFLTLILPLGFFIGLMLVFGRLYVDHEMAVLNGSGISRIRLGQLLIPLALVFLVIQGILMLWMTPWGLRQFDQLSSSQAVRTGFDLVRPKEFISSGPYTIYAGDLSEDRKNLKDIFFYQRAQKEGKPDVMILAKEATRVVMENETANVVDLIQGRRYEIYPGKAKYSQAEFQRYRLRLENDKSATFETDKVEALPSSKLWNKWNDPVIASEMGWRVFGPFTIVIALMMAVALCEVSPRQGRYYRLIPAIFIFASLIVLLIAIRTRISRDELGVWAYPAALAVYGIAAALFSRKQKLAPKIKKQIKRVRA
- Sequence (Q6FFD6 1-356): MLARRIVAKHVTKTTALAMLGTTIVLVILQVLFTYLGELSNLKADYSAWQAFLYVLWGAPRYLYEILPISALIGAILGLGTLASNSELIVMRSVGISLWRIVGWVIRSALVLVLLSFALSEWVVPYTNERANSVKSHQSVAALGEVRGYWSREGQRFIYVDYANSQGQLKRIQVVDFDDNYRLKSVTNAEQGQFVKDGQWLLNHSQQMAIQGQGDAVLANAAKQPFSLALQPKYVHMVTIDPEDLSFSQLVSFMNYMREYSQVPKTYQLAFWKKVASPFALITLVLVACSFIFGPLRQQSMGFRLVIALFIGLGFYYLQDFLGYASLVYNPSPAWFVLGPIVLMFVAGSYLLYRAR
- Sequence (Q6FC66 1-249 partner): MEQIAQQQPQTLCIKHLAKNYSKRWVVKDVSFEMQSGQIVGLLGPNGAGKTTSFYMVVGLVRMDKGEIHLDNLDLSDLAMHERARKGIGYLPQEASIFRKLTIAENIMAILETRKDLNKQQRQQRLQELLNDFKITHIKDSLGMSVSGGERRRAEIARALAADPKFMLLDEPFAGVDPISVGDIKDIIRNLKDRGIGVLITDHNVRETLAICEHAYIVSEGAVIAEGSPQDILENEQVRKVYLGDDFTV
- assay-summary: Radioligand binding SPA, LptB2FG
- measurement-setup: used as constraint for Ki fit
measurement-type: pKd
Field pKd (float): negative decimal logarithm of the concentration in molar.

stdin: Endpoint output: pKd of CN1C(=O)[C@H](CCCCN)NC(=O)[C@H](CCCN)NCc2cccnc2Sc2cccc(-c3ccc(C(=O)O)cc3)c2CNC(=O)[C@@H]1Cc1c[nH]c2ccccc12 [[^3H]-RO7223280] . Value?
stdout: 7.07

---

Listed here are compounds together with their documented pKi.
- target-of-assay: His-tagged LptB2FG (ablLptB2FG) in the presence of LPS (Acinetobacter baylyi, UniProt Q6FFD6+Q6FFD7)
- Sequence (Q6FFD6 entry or part of it): as the sequence (Q6FFD6 1-356) above
- Sequence (Q6FC66 entry or part of it, further chain): as the sequence (Q6FC66 1-249 partner) above
- Sequence (Q6FFD7 entry or part of it): as the sequence (Q6FFD7 1-366) above
- assay-summary: biochemical
The scale used: pKi is minus the common logarithm of the concentration in molar units.

CN1C(=O)[C@H](CCCCN)NC(=O)[C@H](CCCN)NCc2cccnc2Sc2c(Cl)ccc(Cl)c2CNC(=O)[C@@H]1Cc1c[nH]c2ccccc12	7.25
CN1C(=O)[C@H](CCCCN)NC(=O)[C@H](CCCN)NCc2cccnc2Sc2c(Cl)ccc(-c3ccc(N)nc3)c2CNC(=O)[C@@H]1Cc1c[nH]c2ccccc12	7.46

Below: the item to evaluate.
stdin: I would be grateful if you could share the reported pKi for CN1C(=O)[C@H](CCCCN)NC(=O)[C@H](CCCN)NCc2cccnc2Sc2cccc(-c3ccc(C(=O)O)cc3)c2CNC(=O)[C@@H]1Cc1c[nH]c2ccccc12 .
stdout: 7.46
